# ASSAY_REMARKS: Solubility and pH of solution
# Format: physicochemical
# MEASUREMENT_CONTEXT: buffer, pH 8.5, aqueous buffer, pH 8.5 buffer; read-out: solubility in water
RECORDED_METRIC: solubility

Documented solubility of COC(=O)c1cc2cc3c(c(O)c2c(=O)o1)OC1(Cc2c(O)c4c(c(O)c2O1)C(=O)C(OC)=CC4=O)CC3O (stereo not shown) [Purpuromycin] : 22 µg/mL
